# protocol-summary: chemical genetic growth profiling, strain panel (AID 1159580);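 note: tested at 20 µM; growth read once vehicle control cultures reached saturation at 30 °C; 1 = growth at the plate median or of vehicle wells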
# stated-conditions: S. cerevisiae deletion strains, growth OD, locus YJL092W, strain hpr5
The whole screen tested about 5,500 compounds, of which about 2,000 (36%) were called active. Another 18% or so got no clear call; they are omitted. Cut-off read from the data, not from the text of the source: active = normalized growth mostly below about 0.91 (no sharp cut-off); inconclusive = no clear call, values can overlap the other calls; inactive = mostly above about 0.92. The list shows a part of the results.
Pick one: TRUE (active), FALSE (inactive)

Completed entries (count: 2):
CC(=O)O[C@H]1C[C@@H](OC(C)=O)C(C)(C)C2C[C@@H](OC(C)=O)[C@]3(C)C(CC[C@@]4(C)[C@H](c5ccoc5)C(=O)[C@H]5O[C@]543)[C@]21C (some centres undefined) = FALSE
O=C(O)c1cc(=O)c(O)c2c(O)c(O)ccc2c1 = FALSE

Dear colleague, could you share the recorded outcome for COc1ccc(/C=C/C(=O)c2ccc(O)cc2O)cc1 when you have a moment? TRUE

I would be grateful if you could indicate the recorded call for CC1(C)O[C@@H]2CC3C4CCC5=CC(=O)C=C[C@]5(C)C4[C@@H](O)C[C@]3(C)[C@]2(C(=O)CO)O1 (some centres undefined) . FALSE

Hey, what did the test say about CCCc1cc(OC)c2c(c1)OCO2 ? FALSE

====

For each entry below, report its normalized growth value.
# protocol-summary: chemical genetic growth profiling, strain panel (AID 1159580)
# stated-conditions: S. cerevisiae deletion strains, growth OD, locus YOL136C, strain PFK27, active compounds read low
Hit rate of the full screen: of about 5,500 compounds, about 2,000 (36%) were called active. Another 18% or so got no clear call; they are omitted. Some of the results follow.
Give bare numbers.

N=C(N)SCc1nc(-c2ccc(Cl)cc2)no1 = 0.97
O=C(Nc1ccc(Cl)cc1Cl)c1cnccc1C(F)(F)F = 0.982
OC(c1ccc(C(F)(F)F)cc1)c1cccc(C(F)(F)F)c1 (stereo not given) = 0.968
CN(C)/C=C/C(=O)c1ccc(C#Cc2ccccc2)cc1 = 0.976

Consider the additional compound presented here.
normalized growth reading for COCCOc1ccccc1NC(=S)SCCSC(=S)Nc1ccccc1OCCOC : 0.918

====

# protocol-summary: chemical genetic growth profiling, strain panel (AID 1159580)
# stated-conditions: S. cerevisiae deletion strains, growth OD, locus YLL001W, strain dnm1, active compounds read low
Out of some 5,500 compounds screened, about 2,000 (36%) were called active. Inconclusive results (about 18%) are left out. The list shows a part of the results.
Provide the recorded normalized growth for the entries that follow.
One number for each entry.

Check out these entries, answers already filled in.
COc1ccc(/C=C/C(=O)c2cc(O)ccc2O)cc1 = 0.338
COc1ccc(/C=C/C(=O)O)cc1OC = 0.976
COc1cc(/C=C/C(=O)O)ccc1O = 1.01

State recorded normalized growth for all listed molecules.
1. C[C@@H]1C[C@@H]([C@H](O)CC2CC(=O)NC(=O)C2)C(=O)[C@@H](C)C1
2. COc1ccc(/C=C/C(=O)c2ccc(O)cc2O)cc1

0.0597
0.528

Summary for this molecule, COc1cc(/C=C/C(=O)O)cc(OC)c1OC : normalized growth is 0.969

====

# protocol-summary: chemical genetic growth profiling, strain panel (AID 1159580)
# stated-conditions: S. cerevisiae deletion strains, growth OD, locus YNL233W, strain BNI4, active compounds read low
In all, about 5,500 compounds went through this assay and about 2,000 (36%) were called active. Inconclusive results (about 18%) are left out. The list shows a part of the results.
Field: normalized growth. Provide a value for each of the compounds that follow.
One number for each entry.

For every record below, what is its normalized growth?
1. O=c1cccc2n1C[C@H]1CNCC2C1
2. COc1ccc(/C=C/C(=O)O)cc1OC

1.03
1.12

For each of the compounds below, note its normalized growth.
1. CCCNC(C)C(=O)Nc1ccccc1C (stereo unspecified)
2. CC1(C)CC2C1CCC1(C)OC1CCC2(C)O (stereo unspecified)
3. CO[C@@H]1[C@@H](O[C@@H]2O[C@H](C)[C@@H](O[C@H]3C[C@@](C)(O)[C@H](O)[C@H](C)O3)[C@H](N(C)C)[C@H]2O)[C@@H](CC=O)C[C@@H](C)[C@@H](O[C@H]2CC[C@H](N(C)C)[C@@H](C)O2)/C=C/C=C/C[C@H](C)OC(=O)C[C@H]1O

1. 1.03
2. 1.07
3. 1

Provide the reported normalized growth of each entry below, same order.
1. O=C(O)CNCP(=O)(O)O
2. C[C@@H]1CC2C3CCC4=CC(=O)C=C[C@]4(C)[C@@]3(F)[C@@H](O)C[C@]2(C)[C@@]1(O)C(=O)COP(=O)(O)O (stereo partly specified)
3. S=c1[nH]c2ccccc2s1
4. COc1ccccc1-c1cc(=O)c2cccc(OC)c2o1
5. CCC(CCC(C)C1CCC2C3CC=C4C[C@@H](OC(C)=O)CC[C@]4(C)C3CC[C@]12C)C(C)C (stereo partly specified)
6. COc1cc(/C=C/C(=O)O)cc(OC)c1OC
7. OC/C=C/c1ccc(O)c(O)c1

1. 1.02
2. 1.02
3. 0.985
4. 0.795
5. 0.98
6. 0.999
7. 0.994

====

# protocol-summary: chemical genetic growth profiling, strain panel (AID 1159580)
# stated-conditions: S. cerevisiae deletion strains, growth OD, locus YMR263W, strain SAP30, active compounds read low
Screen size: about 5,500 compounds; about 2,000 (36%) were called active. About 18% were inconclusive and are not listed. Some of the results follow.
Field: normalized growth. Provide a value for each of the molecules that follow.
Answers are plain numbers.

Observe how each entry below is paired with its result.
COc1cc2c3cc1Oc1cc(ccc1O)OC1c4c(cc(OC)c(O)c4Oc4ccc(cc4)CC3N(C)CC2)CCN1C (stereo not given) = 1.01
CCn1cc(C(=O)O)c(=O)c2ccc(Cc3ccccc3)nc21 = 1
C[C@](N)(Cc1ccc(O)c(O)c1)C(=O)O = 1

Provide normalized growth values for the following items, in order.
1. Cc1onc(-c2ccccc2Cl)c1C(=O)Nc1ccc(S(=O)(=O)Nc2nccs2)cc1
2. CC(C)c1nc2ccccc2[nH]1
3. CNC(CC(=O)O)C(=O)O (stereo not given)
4. CC(Cc1ccc(O)c(O)c1)(NN)C(=O)O (stereo not given)
5. CCCN1CCOC2c3cc(O)ccc3OCC21 (stereo not given)
6. CC[C@@H]1[C@@H](O)N2C3C[C@H]1C1C(O)[C@]4(C[C@@H]12)c1ccccc1N(C)[C@@H]34 (stereo not given in full)
7. CCn1cc(C(=O)O)c(=O)c2cc3c(cc21)OCO3
8. O=C(O)c1cc(C(F)(F)F)ccc1F

1
1.02
1.01
0.988
1
1
0.994
1.01

====

# protocol-summary: chemical genetic growth profiling, strain panel (AID 1159580);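 note: tested at 20 µM; growth read once vehicle control cultures reached saturation at 30 °C; 1 = growth at the plate median or of vehicle wells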
# stated-conditions: S. cerevisiae deletion strains, growth OD, locus YLR342W, strain FKS1, active compounds read low
Screen size: about 5,500 compounds; about 2,000 (36%) were called active. Not shown: some 18% with an inconclusive outcome. The list shows a part of the results.
value-type: normalized growth
One number for each entry.

CC1=C(/C=C/C(C)=C/C=C/C(C)=C/CO)C(C)(C)CCC1 = 1.03

Please report normalized growth for every entry that follows.
1. CC1=C(/C=C/C(C)=C/C=C/C(C)=C/C=C/C=C(C)/C=C/C=C(C)/C=C/C2=C(C)CCCC2(C)C)C(C)(C)CCC1
2. CC1=C(/C=C/C(C)=C/C=C/C(C)=C/C(=O)O)C(C)(C)CCC1

1. 0.981
2. 0.922

====

# protocol-summary: chemical genetic growth profiling, strain panel (AID 1159580);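 note: tested at 20 µM; growth read once vehicle control cultures reached saturation at 30 °C; 1 = growth at the plate median or of vehicle wells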
# stated-conditions: S. cerevisiae deletion strains, growth OD, locus YMR078C, strain ctf18
About 2,000 (36%) of roughly 5,500 compounds were called active. Another 18% or so got no clear call; they are omitted. Cut-off read from the data, not from the text of the source: active = normalized growth mostly below about 0.91 (no sharp cut-off); inconclusive = no clear call, values can overlap the other calls; inactive = mostly above about 0.92. The list shows a part of the results.
Choose one outcome from this list and give only that: 1 (active), 0 (inactive)

Which outcome was assigned to O=C(O)CCCCC1SCC2NC(=O)NC21 (configuration not stated) in this test? 0

Could you check what this test reported for COP(=S)(OC)Oc1ccc(SC)c(C)c1 ? 0

Per the assay record, what outcome was assigned to CC(=O)OCC(=O)[C@@]12OC(C)(C)O[C@@H]1CC1C3C[C@H](F)C4=CC(=O)C=C[C@]4(C)[C@@]3(F)[C@@H](O)C[C@@]12C (some centres not stated) ? 0

Hello, I am checking results. What call was entered for CCOC(=O)CCCCCCCCCCCCC1C=CCC1 (configuration not stated) ? 1

In this assay, the call recorded for C[C@@]12C(=O)OC(=O)[C@]1(C)C1CCC2O1 was what? 1

In this assay, the call recorded for CN1CCc2cccc3c2C1Cc1ccc(O)c(O)c1-3 (configuration not stated) was what? 0

// outcome(item) with item = c1ccc2[nH]c(-c3cscn3)nc2c1 0

====

# protocol-summary: chemical genetic growth profiling, strain panel (AID 1159580);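 note: tested at 20 µM; growth read once vehicle control cultures reached saturation at 30 °C; 1 = growth at the plate median or of vehicle wells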
# stated-conditions: S. cerevisiae deletion strains, growth OD, locus YKL067W, strain YNK1, active compounds read low
Hit rate of the full screen: of about 5,500 compounds, about 2,000 (36%) were called active. Another 18% or so got no clear call; they are omitted. Some of the results follow.
# if measured normalized growth < 0.9: condition met  # else: condition not met

Solved entries:
Cc1nc(C(F)(F)F)c(C(=O)O/N=C(/N)c2ccc(Cl)cc2)s1 = condition not met
COc1cc(C(=O)Oc2c(Cl)cc(Cl)cc2C=Nc2cccc(C(F)(F)F)c2)cc(OC)c1OC = condition met

normalized growth under 0.9? Item: O=C(Nc1cccc(C(F)(F)F)c1)Oc1ccc(F)cc1Cl condition not met

Take the compound COCCOc1ccccc1NC(=S)SCCSC(=S)Nc1ccccc1OCCOC and say whether its normalized growth is less than 0.9. condition not met

Please check: normalized growth for COc1ccccc1C(C[N+](=O)[O-])c1c(N)n(C)c(=O)n(C)c1=O (stereo not drawn) , strictly under 0.9 or not? condition met

Input Cc1cc(C(=O)O/N=C(/N)c2ccc([N+](=O)[O-])o2)no1 ; condition: normalized growth strictly below 0.9. Does it hold? condition met

Answer whether the compound COc1cc(C(=O)Oc2c(Cl)cc(Cl)cc2C=Nc2cccc([N+](=O)[O-])c2)cc(OC)c1OC has normalized growth strictly less than 0.9 condition met

Report whether reported normalized growth is lower than 0.9 (strictly) for O=C(NCc1ccco1)c1csc(C2COc3ccccc3O2)n1 (stereo not drawn) condition met

State whether 0.9 exceeds normalized growth recorded for O=C(Nc1ccc(Cl)cc1Cl)c1cnccc1C(F)(F)F . condition not met

Identify whether the compound N#CC1=C(N)C(C#N)(C#N)C2(CCCCC2)C2CCCC=C12 (stereo not drawn) records normalized growth below 0.9. condition not met

Lab note: confirm whether the reported normalized growth for this compound is below 0.9, equality not counting. compound: OC(c1ccc(C(F)(F)F)cc1)c1cccc(C(F)(F)F)c1 (stereo not drawn) condition not met

Check if normalized growth falls below 0.9 for CCC1CCC(C)N(C(=S)Nc2ccc(Br)cc2C)C1 (stereo not drawn) . condition not met

In plain terms, does Clc1ccc(-c2noc(CSC3=NCCN3)n2)cc1 come in under 0.9 for normalized growth? condition not met

Is it true that normalized growth reported for N=C(N)SCc1nc(-c2ccc(Cl)cc2)no1 is less than 0.9? condition not met
